- Tested on: T47D (human ductal carcinoma) cells
- experimental protocol: WST-1 antiproliferative assay, T47D
- Type: cell-based
- experimental setup: WST-1 assay, 3–4 days, 0.5–250 µM; neg = negative in concentration used
recorded endpoint: IC50 ± SD, T47D

> print(dat)
                                        mol  recorded.endpoint  assay.value
1  C#CC[Se]c1ccnc2ccc(S(=O)(=O)N(C)CC#C)cc12    IC50 ± SD, T47D          neg
2      C#CCSc1nc2ccccc2cc1S(=O)(=O)N(C)CC#C    IC50 ± SD, T47D          neg
3    C#CCSc1ccnc2ccc(S(=O)(=O)N(C)CC#C)cc12    IC50 ± SD, T47D          neg

###

Property: melting point; scope: individual compounds

Sample records with melting point:
> print(dat)
                                    mol  recorded.endpoint    assay.value
1  C#CCSc1nc2ccccc2cc1S(=O)(=O)N(C)CC#C      melting point  100 to 101 °C
2   C#CCN(C)S(=O)(=O)c1ccc2nccc(Cl)c2c1      melting point  124 to 125 °C
3     C#CCN(C)S(=O)(=O)c1cnc2ccccc2c1Cl      melting point  120 to 121 °C

Data request: What measured melting point goes with C#CCSc1c(S(=O)(=O)N(C)CC#C)cnc2ccccc12 ?
Data returned: 101 to 102 °C

Data request: Any idea what melting point was measured for O=S(=O)(Cl)c1cnc2ccc(Cl)cc2c1 ?
Data returned: 109 to 110 °C

###

Recorded measurements of melting point, one per entry

Worked cases, melting point given:
> print(dat)
                                   molecule    assay.value
1  C#CCSc1ccnc2ccc(S(=O)(=O)N(C)CC#C)cc12 [5d]  139 to 140 °C
2  C#CC[Se]c1ccc2cc(S(=O)(=O)N(C)CC#C)ccc2n1 [6b]  179 to 180 °C
3  C#CCN(C)S(=O)(=O)c1ccc2ncc(S(=O)(=O)N(C)CC#C)cc2c1 [compound 12]  138 to 139 °C
4  C#CC[Se]c1ccnc2ccc(S(=O)(=O)N(C)CC#C)cc12 [6d]  139 to 140 °C
5  C#CC[Se]c1nc2ccccc2cc1S(=O)(=O)N(C)CC#C [6a]  109 to 110 °C
6  C#CC[Se]c1ccnc2cc(S(=O)(=O)N(C)CC#C)ccc12 [6e]  108 to 109 °C
7  C#CC[Se]c1ccnc2c(S(=O)(=O)N(C)CC#C)cccc12 [6f]  111 to 115 °C
8    C#CCN(C)S(=O)(=O)c1cc2ccccc2nc1Cl [2a]  110 to 111 °C

Data request: What melting point value was documented for this molecule, C#CC[Se]c1c(S(=O)(=O)N(C)CC#C)cnc2ccccc12 [6c] ?
Data returned: 122 to 123 °C

Data request: Query (molecule): C#CCSc1ccnc2c(S(=O)(=O)N(C)CC#C)cccc12 [5f] ; field requested: melting point
Data returned: 119 to 120 °C
